Reported values: Ki for 5-hydroxytryptamine receptor 6 (Homo sapiens), one per item.

Compound	Test Target	Ki
O=C(O)CCC(=O)N1N=C(c2c(-c3ccc(Cl)cc3)c3ccccc3[nH]c2=O)CC1c1ccc(Cl)cc1 (racemic)	5-hydroxytryptamine receptor 6 (Homo sapiens)	> 10 µM
O=C(O)/C=C/C(=O)N1N=C(c2c(-c3ccc(Br)cc3)c3ccccc3[nH]c2=O)CC1c1ccc(Cl)cc1 (racemic)	5-hydroxytryptamine receptor 6 (Homo sapiens)	> 10 µM

----------
biological target: Glutamate receptor ionotropic, NMDA 2C (Rattus norvegicus, UniProt P35439+Q00961); test: Negative allosteric modulation of recombinant rat GluN2C receptor expressed in Xenopus laevis oocytes by two-electrode voltage clamp method
Sequence (Q00961 whole entry, one chain of several): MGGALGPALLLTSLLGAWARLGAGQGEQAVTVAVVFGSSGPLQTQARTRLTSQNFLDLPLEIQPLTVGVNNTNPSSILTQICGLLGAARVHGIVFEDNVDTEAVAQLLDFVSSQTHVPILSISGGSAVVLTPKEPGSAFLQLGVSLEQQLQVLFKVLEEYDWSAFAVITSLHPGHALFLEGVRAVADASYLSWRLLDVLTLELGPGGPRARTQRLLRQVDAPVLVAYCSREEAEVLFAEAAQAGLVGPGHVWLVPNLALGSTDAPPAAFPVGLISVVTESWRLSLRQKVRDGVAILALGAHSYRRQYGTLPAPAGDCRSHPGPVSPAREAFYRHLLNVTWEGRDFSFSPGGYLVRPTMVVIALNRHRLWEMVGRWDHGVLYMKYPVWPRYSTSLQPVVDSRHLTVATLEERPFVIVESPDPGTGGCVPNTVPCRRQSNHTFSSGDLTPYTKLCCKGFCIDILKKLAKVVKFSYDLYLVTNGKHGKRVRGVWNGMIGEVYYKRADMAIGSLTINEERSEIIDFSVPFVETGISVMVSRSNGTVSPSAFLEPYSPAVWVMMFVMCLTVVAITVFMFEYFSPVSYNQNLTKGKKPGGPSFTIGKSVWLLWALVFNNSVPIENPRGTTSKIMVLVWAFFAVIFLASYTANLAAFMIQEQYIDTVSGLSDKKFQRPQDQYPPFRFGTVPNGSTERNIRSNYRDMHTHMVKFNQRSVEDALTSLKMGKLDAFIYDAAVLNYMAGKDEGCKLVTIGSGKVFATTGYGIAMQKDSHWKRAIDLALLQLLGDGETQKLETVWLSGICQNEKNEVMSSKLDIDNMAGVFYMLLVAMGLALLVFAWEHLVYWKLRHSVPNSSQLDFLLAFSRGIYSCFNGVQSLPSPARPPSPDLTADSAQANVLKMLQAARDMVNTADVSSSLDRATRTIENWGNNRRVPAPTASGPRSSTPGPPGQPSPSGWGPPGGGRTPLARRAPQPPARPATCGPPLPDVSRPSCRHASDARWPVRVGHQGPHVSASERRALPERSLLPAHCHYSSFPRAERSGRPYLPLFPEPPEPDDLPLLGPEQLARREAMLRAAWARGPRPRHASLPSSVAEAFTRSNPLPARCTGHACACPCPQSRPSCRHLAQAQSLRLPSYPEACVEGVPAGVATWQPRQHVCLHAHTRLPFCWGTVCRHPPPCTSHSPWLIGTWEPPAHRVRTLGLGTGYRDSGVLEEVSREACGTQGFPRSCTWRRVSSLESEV
pIC50: −log10 of the molar value.
Below, each entry is listed with its recorded pIC50.

Molecule	pIC50
O=C(O)CCC(=O)N1N=C(c2c(-c3ccc(F)c(Cl)c3)c3ccccc3[nH]c2=O)CC1c1ccc(Cl)cc1 (centres undefined)	5.85
Cc1cccc(-c2c(C3=NN(C(=O)CCC(=O)O)C(c4ccc(Cl)cc4)C3)c(=O)[nH]c3ccccc23)c1 (centres undefined)	5.40
COc1ccc(-c2c(C3=NN(C(=O)CCC(=O)O)C(c4ccc(Cl)cc4)C3)c(=O)[nH]c3ccccc23)cc1 (centres undefined)	5.30
O=C(O)CCC(=O)N1N=C(c2c(-c3ccc(C(F)(F)F)cc3)c3ccccc3[nH]c2=O)CC1c1ccc(Cl)cc1 (centres undefined)	5.44
O=C(O)CCC(=O)N1N=C(c2c(-c3ccccc3)c3cc(Cl)ccc3[nH]c2=O)CC1c1ccc(F)cc1 (centres undefined)	4.64
O=C(O)CCC(=O)N1N=C(c2c(-c3ccc(Cl)c(F)c3)c3ccccc3[nH]c2=O)CC1c1ccc(Cl)cc1 (centres undefined)	6.04
O=C(O)CCC(=O)N1N=C(c2c(-c3ccc(Br)cc3)c3ccccc3[nH]c2=O)CC1c1ccccc1 (centres undefined)	5.00
O=C(O)CCC(=O)N1N=C(c2c(-c3ccc(Cl)cc3)c3ccccc3[nH]c2=O)CC1c1ccccc1 (centres undefined)	4.89
NC(=O)CCC(=O)N1N=C(c2c(-c3ccc(Cl)cc3)c3ccccc3[nH]c2=O)CC1c1ccc(Cl)cc1 (centres undefined)	5.70
O=C(O)CCC(=O)N1N=C(c2c(-c3ccc(Cl)cc3)c3ccccc3[nH]c2=O)C[C@H]1c1ccc(Cl)cc1	6.66
O=C(O)CCC(=O)N1N=C(c2c(-c3cccc(F)c3)c3ccccc3[nH]c2=O)CC1c1ccc(Cl)cc1 (centres undefined)	5.96
O=C(O)CCC(=O)N1N=C(c2c(-c3ccc(Cl)c(Cl)c3)c3ccccc3[nH]c2=O)CC1c1ccc(Cl)cc1 (centres undefined)	6.10
COc1ccc(C2CC(c3c(-c4ccccc4)c4cc(Cl)ccc4[nH]c3=O)=NN2C(=O)CCC(=O)O)cc1 (centres undefined)	4.55
O=C(O)CCC(=O)N1N=C(c2c(-c3ccc(Cl)cc3)c3ccccc3[nH]c2=O)C[C@@H]1c1ccc(Cl)cc1	5.68
O=C(O)CCC(=O)N1N=C(c2c(-c3ccc(Cl)cc3)c3ccccc3[nH]c2=O)CC1c1ccc(F)cc1 (centres undefined)	5.39
O=C(O)CCC(=O)N1N=C(c2c(-c3ccc(Br)cc3)c3ccccc3[nH]c2=O)CC1c1ccc(F)cc1 (centres undefined)	5.42
O=C(O)CCC(=O)N1N=C(c2c(-c3cc(F)cc(F)c3)c3ccccc3[nH]c2=O)CC1c1ccc(Cl)cc1 (centres undefined)	5.96
O=C(O)CCC(=O)N1N=C(c2c(-c3ccc(Cl)cc3)c3ccccc3[nH]c2=O)CC1c1ccc(Cl)cc1 (racemic)	6.11
Cc1ccc(-c2c(C3=NN(C(=O)CCC(=O)O)C(c4ccc(Cl)cc4)C3)c(=O)[nH]c3ccccc23)cc1 (centres undefined)	5.60
O=C(O)CCC(=O)N1N=C(c2c(-c3ccccc3)c3cc(Cl)ccc3[nH]c2=O)CC1c1ccc([N+](=O)[O-])cc1 (centres undefined)	6.05
O=C(O)CCCC(=O)N1N=C(c2c(-c3ccccc3)c3cc(Cl)ccc3[nH]c2=O)CC1c1ccc(Br)cc1 (centres undefined)	5.19
O=C(O)CCC(=O)N1N=C(c2c(-c3cccc(C(F)(F)F)c3)c3ccccc3[nH]c2=O)CC1c1ccc(Cl)cc1 (centres undefined)	5.47
O=C(O)/C=C/C(=O)N1N=C(c2c(-c3ccc(Br)cc3)c3ccccc3[nH]c2=O)CC1c1ccc(Cl)cc1 (racemic)	6.70
O=C(O)CCC(=O)N1N=C(c2c(-c3ccc(Br)cc3)c3ccccc3[nH]c2=O)CC1c1ccc(Cl)cc1 (centres undefined)	6.25
O=C(O)/C=C\C(=O)N1N=C(c2c(-c3ccc(Br)cc3)c3ccccc3[nH]c2=O)CC1c1ccc(Cl)cc1 (centres undefined)	6.00
O=C(O)/C=C/C(=O)N1N=C(c2c(-c3ccccc3)c3cc(Cl)ccc3[nH]c2=O)CC1c1ccc(Br)cc1 (centres undefined)	5.68
COC(=O)/C=C/C(=O)N1N=C(c2c(-c3ccc(Br)cc3)c3ccccc3[nH]c2=O)CC1c1ccc(Cl)cc1 (centres undefined)	4.23
CN(C)c1ccc(C2CC(c3c(-c4ccccc4)c4cc(Cl)ccc4[nH]c3=O)=NN2C(=O)CCC(=O)O)cc1 (centres undefined)	4.41
O=C(O)CCCC(=O)N1N=C(c2c(-c3ccc(Br)cc3)c3ccccc3[nH]c2=O)CC1c1ccc(Cl)cc1 (centres undefined)	6.22
